Experiment: soluble on expression in E. coli; label from the status in PepcDB or PDB records
Measured Attribute: soluble on expression in E. coli

Item Sequence	soluble on expression in E. coli
MSIKSDSRHLYLQVIDRIKRDIETGVYKEKQKLPSEFELAKQLGVSRATLREALRVLEEENIIIRRHGVGTFVNARPLFTSGIEQLSSVTDMIRQAGRKPGTIFLSSSIQQPTEDDMRRFQCRPDENLLLIERVRTADGEPVVYCLDKILCKYLPKGISYEHESLFENLHNQTHRDIAYAVARIVPLGYHEKVSPILQCDPETALLVLKQMHFDKNDEPIFYSVNYFRSDKFSFHVMRKRFSF	not soluble
MSGGLLKALRSDSYVELSQYRDQHFRGDNEEQEKLLKKSCTLYVGNLSFYTTEEQIYELFSKSGDIKKIIMGLDKMKKTACGFCFVEYYSRADAENAMRYINGTRLDDRIIRTDWDAGFKEGRQYGRGRSGGQVRDEYRQDYDAGRGGYGKLAQNQ	soluble
AIAVHRDPAEELWCELWQPGVDITRKMNAIFGLKEIGTERAVTLLCAALLDARERSVLVRHEIAYVLGQIQSAASIKTLTDRLIDTDENSIVRHECGEALGAVRAFAVRPILQKLCGDAVPEVRETCVLALERLRWLEEKSTNEERVRETSAKAFKLFETVDPAPAFVAPDDLEASWSNAELGELLLNENEPLFRRYRALFTLRDRNTDDTAGVIAAALRRDTSSALFRHEVAYVLGQMSRACTLPALESALADTHEHAMVRHEAAEAIGAIGNSSACDILRRFLRDANVIVRESCQVALDIAGISDDCQFMD	soluble
MKLIFLSGVKRSGKDTTADFIMSNYSAVKYQLAGPIKDALAYAWGVFAANTDYPCLTRKEFEGIDYDRETNLNLTKLEVITIMEQAFCYLNGKSPIKGVFVFDDEGKESVNFVAFNKITDVINNIEDQWSVRRLMQALGTDLIVNNFDRMYWVKLFALDYLDKFNSGYDYYIVPDTRQDHEMDAARAMGATVIHVVRPGQKSNDTHITEAGLPIRDGDLVITNDGSLEELFSKIKNTLKVL	soluble
SFRFMRDVEPEDPMFLMDPFAIHRQHMSRMLSGGFGYSPFLSITDGNMPGTRPASRRMQQAGAVSPFGMLGMSGGFMDMFGMMNDMIGNMEHMTAGGNCQTFSSSTVISYSNTGDGAPKVYQETSEMRSAPGGIRETRRTVRDSDSGLEQMSIGHHIRDRAHILQRSRNHRTGDQEERQDYINLDESEAAAFDDEWRRETSRFRQQRPLEFRRLESSGAGGRRAEGPPRLAIQGPEDSPSRQSRRYDW	soluble

Item MGSDKIHHHHHHMWVRVPPPAPFSIFLSPGDDIVKRRKSTRTSSFGVKGRESHDSSPFYSRAIYSNFSLPKPSEEDLIENPLPENLLDKVIEGDAREVLKKIPDCSIHLMVTSPPYNVGKEYDEDMTLDEYLEFIEEIMKEVYRVLVWGGRACFNVANLGRKPYIPLHAYLIHLFEKIGFLIRGEIIWDKGEAVSGSSTAWGSWMSPVNPVLRDQHEYIIVMSKGDLKRRKPSDREAKSTITREEFLEFTRSVWKFPPESAKRVGHPAPFPEELPYRCIQLYTFKGDVVLDPFAGVGTTCVAAVKTGRHFVGIEINPEYVKKAEERVKDILSKPTLFEDHC : provide soluble on expression in E. coli
not soluble

###

Test: soluble on expression in E. coli; label from the status in PepcDB or PDB records
Measured Attribute: soluble on expression in E. coli

Item Sequence	Result
MGSDKIHHHHHHKQTVSSESTEELDDASKVINYYHMSLAVLRHVANAKDINAVLGYMEQTGKVPEVDPIAPPEIAARDTAELLDPGDYFNPEVRQNLKQNYAGLFNVRTQFYDNFNKFLAYKKSKDTAKTAQLLDENYKLSVELSEYKQVIFDILSPLTEQAESELLADEPLKDQIMAMRKMSGTVQSIMNLYSRKHAMDGVRIDLKMAELEKELKAAEKIPAVTGYDEELKNFQSFLSTVKSFMNDMQKARSKGAYSDKEYQAMSEAYEYGLSVI	not soluble
MTIQPPSSSSATEFCQPDESTFLVGFNRVRRYGTTQSQSSPVTPCSYTIYQVQTDDTLERIALKHNCSVSSLVRANKLWSPSALFMKQFIRIPIFNSQQPNLKPSLQETQCKIVPATTERVDSSREEKSMKDILQRIDRNIKSFRKCDNPSSSAYDHI	not soluble
MGHHHHHHSHLFQGDDAKEKIAVVDETNELYPVFSKQLKAVDTDGDLDVKLSKQSEDEVTKQVKDESLDGMLIIKRDEKGTISGTYKALTISDESTYQTLQQALTQTKTAVGTAELGVSQETISSLYAPVTVGQKALKEGAKSEEELGQT	not soluble
MKNKLPPFIEIYRALIATPSISATEEALDQSNADLITLLADWFKDLGFNVEVQPVPGTRNKFNMLASTGQGAGGLLLAGHTDTVPFDDGRWTRDPFTLTEHDGKLYGLGTADMKGFFAFILDALRDVDVTKLKKPLYILATADEETSMAGARYFAETTALRPDCAIIGEPTSLQPVRAHKGHISNAIRIQGQSGHSSDPARGVNAIELMHDAIGHILQLRDNLKERYHYEAFTVPYPTLNLGHIHGGDASNRICAWCELHMDIRPLPGMTLNELNGLLNDALAPVSERWPGRLTVDELHPPIPGYECPPNHQLVEVVEKLLGAKTEVVNYCTEAPFIQTLCPTLVLGPGSINQAHQPDEYLETRFIKPTRELITQVIHHFCWH	soluble
MKNPQSKADDILQCARTLIIRGGYNSFSYADISQVVGIRNASIHHHFPSKSDLVCKLVSQYRQEAEAGIAELEKNISDPLEQLRAYIGYWEGCIADATHPFCVCALLASEIPVLPETVVLEVRAHFRSLSDWLTAVLERGIAQGRLVLTGTARANAEIFMATVHGAMLSARAHGDAATFGAITRPMLERITA	soluble

Field: next sequence
Item MHHQSVLHSGYFHPLLRSWQTAASTVSASNLIYPIFVTDVPDDVQPIASLPGVARYGVNQLEEMLRPLVEAGLRCVLIFGVPSRVPKDEQGSAADSEDSPTIEAVRLLRKTFPSLLVACDVCLCPYTSHGHCGLLSENGAFLSEESRQRLAEVALAYAKAGCQVVAPSDMMDGRVEAIKAALLKHGLGNRVSVMSYSAKFASCFYGPFRDAAQSSPAFGDRRCYQLPPGARGLALRAVARDIQEGADMLMVKPGLPYLDMVREVKDKHPELPLAVYQVSGEFAMLWHGAQAGAFDLRTAVLETMTAFRRAGADIIITYFAPQLLKWLKEE : provide soluble on expression in E. coli
soluble

###

Assay: soluble on expression in E. coli; label from the status in PepcDB or PDB records
Measured Attribute: soluble on expression in E. coli

Item Sequence	soluble on expression in E. coli
RGKVFLEAQEKYEVNVIYLVSHALVETGNGKSELAKGIKDGKKRYYNFFGIGAFDSSAVRSGKSYAEKEQWTSPDKAIIGGAKFIRNEYFENNQLNLYQMRWNPENPAQHQYASDIRWADKIAKLMDKSYKQFGIKKDDIRQTYYK	not soluble
MGSDKIHHHHHHMAMTTEFANEITDVAKAIYEYAELGSSEYKSSSYLVEAFKRHGFQVDFPYLGMKTAFKARYFNGKPMVGLLAEYDALPNGHSCGHDLIAAWAFGTAIRLKDEFGISVTVFGTPSEEGIGEYAGSKAKFAQSGAFSDVDYVIGMHPDDRWAVGSTSLADLTIEAQFIGKSSHLLSPDYGINALDPLVESYVALSNFRRSVPNSKYPVIGMIVKEGGRASNVIPDKASMEIDIRAKKKADLAGFVDQIERILKMEGEMHYCKLNINEVTPIYDEYKSNRVIDSLLEEECQKHAVNPFNVDRSGEEPMGSTDEANVSQVIPTGHLDVKIVDPGIPAHTDEFRIAADPSRSGKTLLKAIDITVETIKTIWQDKKFMNKIKEEFKK	not soluble
MGSDKIHHHHHHMKKLLNTLYLTQEDFYVTKEGDNIVIKQEGKVLKRFPFRIIDGIVCFSYLGVSSALVKLCTENQINLSFHTPQGRFCGRYIGSTNGNVLLRREHYRLSDREESLEYAKRFILAKISNSRKYLLRFKRDHRQQIDTKLFEAVNDELIWALEMVQAADNKDSLRGIEGQAANQYFRIFNDLVLTDKKTFYFQGRSKRPPLDCVNALLSFGYSLLTFECQSALEAVGLDSYVGFFHTDRPGRASLALDLVEEFRSYIVDRFVFSLINKGQLQKKHFEVKENGSILLTENGRAIFIDLWQKRKHTEVEHPFTKEKVKLMLLPYVQAQLLAKAIRGDLESYPPFMV	not soluble
MTINFRRNALQLSVAALFSSAFMANAADVPQVKVTVTDKQCEPMTITVNAGKTQFIIQNHSQKALEWEILKGVMVVEERENIAPGFSQKMTANLQPGEYDMTCGLLTNPKGKLIVKGEATADAAQSDALLSLGGAITAYKAYVMAETTQLVTDTKAFTDAIKAGDIEKAKALYAPTRQHYERIEPIAELFSDLDGSIDAREDDYEQKAADPKFTGFHRLEKALFGDNTTKGMDQYAEQLYTDVVDLQKRISELAFPPSKVVGGAAGLIEEVAASKISGEEDRYSHTDLWDFQANVEGSQKIVDLLRPQLQKANPELLAKVDANFKKVDTILAKYRTKDGFETYDKLTDADRNALKGPITALAEDLAQLRGVLGLD	soluble
MRATVSGKTTTILPLLSKLIVIVIKSTSIHCSTLTSSGLFDSTAPRVFKNLVNYGGDMWFYMKPYPSNGKSGSQQMENVYQGLKSAQIKFSHITQHGISVQFFTSQSNWHSITNNNRSFSSYKLWWAHTNGAGNGGATSPNFEGFVSFGGWTSSSLVGKEYARQVQECGVTVNKYVYVK	not soluble
MGGLVSRCEAFSSSAEQKLSQGRNTSMDEKTTQTKPSRRPWFWKRIERTELPNPGSYEDINQEASAVLRPNLFDGFRFDFNYPLSAMFSMGHSIEMGSLQKPPGYAFSANYLSNHLVMLSRVDLSGHVNGRVFINHSPFLTSKIVAETSSQPNESKATWDLDYRGSDFCGQLKFGNMGIVALSYLQSVTPNLSLGGEGFYQGATGFSAITAAGRYVTHDGVATCTIASFGPLVASYCHRVNPRVTLATEFFWDLRSRDSLVTIGYKFDLRQATVTGQIDTNGRVAALLEEKINPGLSFLLSGEIDHSRQEYKFGFGVTIGQ	soluble
MGSDKIHHHHHHMQKLQTVNAETLLYEPLEKPSFVVDSLIPTGLSLFCGSQKIGKSWLMLKLCLCVSQGIPLWDMPTMEGDVLYLCLEDTFCRIQDRLFRLTDEASGRLHFAVASCKLSDGLIVQLEDYLKDYPDSRLIVIDTLQKVRTASKDNAYASDYGDISLIKDFADRHSLAVIVVHHIRKQNDSDVFNKVSGTTGLTGSADATFVLEKEKRASDTAKLYVTGRDTPYQEYTLRFRDCRWELVERKTQEQLAKETIPDVLFRLVDFMRDKEEWIGTATELLAAMGETETIPTVITKWLNEYRTTFLSENRICYQYSRRKDGRRIALARRAGDSGDGGDSDIRIPPCYCH	not soluble
MDYKSKTANDKEISIYYFSATGNSLKLSQDIAAAFGGAGLFRMTPSAGITASDSRIVGFIFPVYMGGLPGIVRRFLESYPFRKGVYYFSIGTYYTYKGCAVSVVDKIMSGKGVRLDYGYNLPTVGNCLKEYEVSSVRRTKILERAELYTSRIIDDLKKGKRKKPFPYCRLSDLLHKGLFNAFFSRSHLNFSLENGCMGCGVCERVCPVNNITLKNGVPRWGTGCEACHACVHWCPRNVIQIGKSKGRLQYHHPAVKRTMLYRVELEHHHHHH	not soluble

// batch mode: one soluble on expression in E. coli value per listed entry
1. MTLTASSSSRAVTNSPVVVALDYHNRDDALAFVDKIDPRDCRLKVGKEMFTLFGPQFVRELQQRGFDIFLDLKFHDIPNTAAHAVAAAADLGVWMVNVHASGGARMMTAAREALVPFGKDAPLLIAVTVLTSMEASDLVDLGMTLSPADYAERLAALTQKCGLDGVVCSAQEAVRFKQVFGQEFKLVTPGIRPQGSEAGDQRRIMTPEQALSAGVDYMVIGRPVTQSVDPAQTLKAINASLQRSA
2. MIMNQQLNATKKDKLQVIDWLIENFPNAFFKKGNQVKPLKIGIFDDLIDFYERLDTPPFSKKSLREALSYYSASPAYLSCQKPDTARVDIYGNEVDVVTPEQAKYAYQRYQERYGNKKSQELK

["soluble", "not soluble"]
